This collection of values is drawn from patent US20080050375A1.

# measured on: T1, human TGF-beta 1 (R&D Systems, Cat # 240-B/CF) (human, UniProt P01137 279-390)
# T1 construct: They match K95 and residues 58-61 of mature numbering; also called TGF-β1; mature TGF-β1
# assay explanation: Biacore SPR, mAb captured on Protein A, TGF-beta 1 injected
experimental endpoint: kon (M⁻¹ s⁻¹)
Respond numerically; units are M⁻¹ s⁻¹ and should not be typed.

As a guide, the following entries are already answered.
{"binder": "mAb 23A3 (antibody, IgG4, V domains shown) VH: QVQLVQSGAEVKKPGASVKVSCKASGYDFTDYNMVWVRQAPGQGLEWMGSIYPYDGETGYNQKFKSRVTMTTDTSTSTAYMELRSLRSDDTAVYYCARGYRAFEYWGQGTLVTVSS VL: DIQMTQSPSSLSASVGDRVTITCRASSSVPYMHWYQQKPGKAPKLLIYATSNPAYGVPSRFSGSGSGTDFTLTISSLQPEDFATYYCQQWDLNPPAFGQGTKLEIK", "result": "1.9e+07"}
{"binder": "mAb DM7 (antibody, IgG4, V domains shown) VH: QVQLVQSGAEVKKPGASVKVSCKASGYDFTDYNMHWVRQAPGQGLEWMGYIYPYDGETGYNQKFKSRVTMTTDTSTSTAYMELRSLRSDDTAVYYCARGYRWLYYWGQGTLVTVSS VL: DIQMTQSPSSLSASVGDRVTITCRASSSVSYMHWYQQKPGKAPKPLIYATSNLAKGVPSRFSGSGSGTDFTLTISSLQPEDFATYYCQQWDLNPPAFGQGTKLEIK", "result": "1.3e+07"}
{"binder": "mAb DM4 (antibody, human IgG4 S228P, kappa, V domains shown, Full-length IgG4 antibody; also called LA307-DM4) VH: QVQLVQSGAEVKKPGASVKVSCKASGYDFTDYNIHWVRQAPGQGLEWMGYIYPYDGETGYNQKFKSRVTMTTDTSTSTAYMELRSLRSDDTAVYYCARGYRWLAYWGQGTLVTVSS VL: DIQMTQSPSSLSASVGDRVTITCRASSSVSYMHWYQQKPGKAPKPLIYATSNLAYGVPSRFSGSGSGTDFTLTISSLQPEDFATYYCQQWDLNPPAFGQGTKLEIKR", "result": "1.6e+07"}

Okay, next one:
kon lookup needed for mAb 21D1 (antibody, human IgG4 S228P, kappa, V domains shown, Full-length IgG4 antibody; also called LA307-21D1) VH: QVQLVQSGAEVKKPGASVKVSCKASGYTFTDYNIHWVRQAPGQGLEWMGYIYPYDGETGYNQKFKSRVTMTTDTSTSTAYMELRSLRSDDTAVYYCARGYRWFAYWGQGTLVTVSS VL: DIQMTQSPSSLSASVGDRVTITCRASSSVPYMHWFQQKPGKAPKSLIYATSNPAYGVPSRFSGSGSGTDFTLTISSLQPEDFATYYCQQWDLNPPAFGQGTKLEIKR , thanks.
1.3e+07
